Data provenance: patent US20120071539A1

Below, each entry is listed alongside its reported EGFP, 293-EGFP cells Drug alone.
system: EGFP, 293-EGFP cells; experiment: plate-reader chemical library screen, GFP signal in control EGFP cells; format: cell-based, human; details: GFP signal; 50 mM each drug
Counter-ions that a name gives are not always drawn.
Form: value (number only, do not type unit).

Previously resolved entries follow.
{"compound": "Cc1ccc(/C(=C\\CN2CCCC2)c2ccccn2)cc1 [Triprolidine Hydrochloride]", "EGFP, 293-EGFP cells Drug alone": 202102776}
{"compound": "CC(=O)O[C@H]1C[C@@]2(C)[C@@H](C[C@@H](O)[C@H]3[C@@]4(C)CC[C@@H](O)[C@@H](C)[C@@H]4CC[C@@]32C)/C1=C(\\CCC=C(C)C)C(=O)O", "EGFP, 293-EGFP cells Drug alone": 229560272}
{"compound": "CC(=O)O[C@@H]1C[C@H]2C(C)(C)[C@@H](O)CC[C@]2(C)[C@H]2CC[C@]3(C)C(=CC(=O)O[C@H]3c3ccoc3)[C@@]21C [3-beta-Hyroxydeoxo-dihydrodeoxygedunin, 3-beta-hydroxydeoxodihydrodeoxygedunin]", "EGFP, 293-EGFP cells Drug alone": 213530556}
{"compound": "O=C1CC[C@]23/C=C/C(=O)NCCCCNCCCNC(=O)/C=C/c4ccc(c2c4)O[C@@H]3C1", "EGFP, 293-EGFP cells Drug alone": 131010562}

// query What value of measured EGFP, 293-EGFP cells Drug alone is listed for C=C1C2CCC3(C)C(c4ccoc4)OC(=O)CC13OC1CC(O)C(C)(C)C(CC(=O)OC)C12C (stereo not drawn) ?
// result 129330172

// query What value of measured EGFP, 293-EGFP cells Drug alone is listed for "Nc1nc2[nH]cnc2c(=S)[nH]1" ?
// result 181033260

###

tested on: siRNA-mediated mRNA degradation; experiment: cell-based reporter screen: human 293 cells stably expressing GFP plus siRNA hairpin against GFP; conditions: Table 1
endpoint: Modulation Effect (inhibit or enhance siRNA-mediated mRNA degradation)

{"compound": "CC(=O)O[C@@H]1C[C@H]2C(C)(C)[C@@H](O)CC[C@]2(C)[C@H]2CC[C@]3(C)C(=CC(=O)O[C@H]3c3ccoc3)[C@@]21C [3-beta-Hyroxydeoxo-dihydrodeoxygedunin, 3-beta-hydroxydeoxodihydrodeoxygedunin]", "measured value": "Enhancer"}
{"compound": "CC(=O)O[C@H]1C[C@@]2(C)[C@@H](C[C@@H](O)[C@H]3[C@@]4(C)CC[C@@H](O)[C@@H](C)[C@@H]4CC[C@@]32C)/C1=C(\\CCC=C(C)C)C(=O)O", "measured value": "Enhancer"}
{"compound": "C=C1C2CCC3(C)C(c4ccoc4)OC(=O)CC13OC1CC(O)C(C)(C)C(CC(=O)OC)C12C (stereo not shown)", "measured value": "Enhancer"}

###

system: Clone#3, 293-EGFP-siGFP cells; assay: plate-reader chemical library screen, GFP signal in Clone#3 cells; format: cell-based, human; details: 50 mM each drug; plate reader
Counter-ions that a name gives are not always drawn.
endpoint: Clone#3, 293-EGFP-siGFP cells GFP signal intensity with Drug alone
Form: value (number only, do not type unit).

Previously resolved entries follow.
{"compound": "CC(C)C[C@H]1C(=O)N2CCC[C@H]2[C@]2(O)O[C@](NC(=O)[C@@H]3C=C4c5cccc6[nH]c(Br)c(c56)C[C@H]4N(C)C3)(C(C)C)C(=O)N12 [Bromocriptine Mesylate]", "target desc": "Clone#3, 293-EGFP-siGFP cells", "measured value": 7607590}
{"compound": "Cc1ccc(/C(=C\\CN2CCCC2)c2ccccn2)cc1 [Triprolidine Hydrochloride]", "target desc": "Clone#3, 293-EGFP-siGFP cells", "measured value": 26791778.5}
{"compound": "CC(=O)O[C@H]1C[C@@]2(C)[C@@H](C[C@@H](O)[C@H]3[C@@]4(C)CC[C@@H](O)[C@@H](C)[C@@H]4CC[C@@]32C)/C1=C(\\CCC=C(C)C)C(=O)O [Fusidic Acid]", "target desc": "Clone#3, 293-EGFP-siGFP cells", "measured value": 27803206.5}
{"compound": "O=C(O)CCC(=O)c1ccc(-c2ccccc2)cc1 [Fenbufen]", "target desc": "Clone#3, 293-EGFP-siGFP cells", "measured value": 26499027}
{"compound": "C=C1C2CCC3(C)C(c4ccoc4)OC(=O)CC13OC1CC(O)C(C)(C)C(CC(=O)OC)C12C (stereo not shown)", "target desc": "Clone#3, 293-EGFP-siGFP cells", "measured value": 10997867}
{"compound": "CC(=O)O[C@@H]1C[C@H]2C(C)(C)[C@@H](O)CC[C@]2(C)[C@H]2CC[C@]3(C)C(=CC(=O)O[C@H]3c3ccoc3)[C@@]21C [3-beta-Hyroxydeoxo-dihydrodeoxygedunin, 3-beta-hydroxydeoxodihydrodeoxygedunin]", "target desc": "Clone#3, 293-EGFP-siGFP cells", "measured value": 17430963}
{"compound": "Nc1nc2[nH]cnc2c(=S)[nH]1 [Thioguanine]", "target desc": "Clone#3, 293-EGFP-siGFP cells", "measured value": 11903224.8}
{"compound": "Cc1cc(=O)c2c(O)c3c(cc2o1)OCC(C)CC3 (stereo not shown) [Dihydroptaeroxylin]", "target desc": "Clone#3, 293-EGFP-siGFP cells", "measured value": 26383349}
{"compound": "O=C1CC[C@]23/C=C/C(=O)NCCCCNCCCNC(=O)/C=C/c4ccc(c2c4)O[C@@H]3C1 [Lunarine]", "target desc": "Clone#3, 293-EGFP-siGFP cells", "measured value": 9353700}

// query # returns recorded Clone#3, 293-EGFP-siGFP cells GFP signal intensity with Drug alone (system: Clone#3, 293-EGFP-siGFP cells) for CC(=O)N(O)CCCCCNC(=O)CCC(=O)N(O)CCCCCNC(=O)CCC(=O)N(O)CCCCCN [Deferoxamine Mesylate]
// result 15874023.8

###

system: Clone#3, 293-EGFP-siGFP cells; test: plate-reader chemical library screen, GFP signal in Clone#3 cells; type: cell-based, human; conditions: Table 2

{"molecule": "Cc1cc(=O)c2c(O)c3c(cc2o1)OCC(C)CC3 (stereo not shown) [Dihydroptaeroxylin]", "target desc": "Clone#3, 293-EGFP-siGFP cells", "Effect": "Enhancer"}
{"molecule": "CC(=O)O[C@@H]1C[C@H]2C(C)(C)[C@@H](O)CC[C@]2(C)[C@H]2CC[C@]3(C)C(=CC(=O)O[C@H]3c3ccoc3)[C@@]21C [3-beta-Hyroxydeoxo-dihydrodeoxygedunin, 3-beta-hydroxydeoxodihydrodeoxygedunin]", "target desc": "Clone#3, 293-EGFP-siGFP cells", "Effect": "Enhancer"}
{"molecule": "CC(=O)O[C@H]1C[C@@]2(C)[C@@H](C[C@@H](O)[C@H]3[C@@]4(C)CC[C@@H](O)[C@@H](C)[C@@H]4CC[C@@]32C)/C1=C(\\CCC=C(C)C)C(=O)O", "target desc": "Clone#3, 293-EGFP-siGFP cells", "Effect": "Enhancer"}

###

Below, each entry is listed alongside its reported EGFP, 293-EGFP cells Drug alone.
system: EGFP, 293-EGFP cells; experiment: plate-reader chemical library screen, GFP signal in control EGFP cells; format: cell-based, human; settings: GFP signal; 50 mM each drug
Structures can show the parent of a compound that is named as a salt.
Form: value (number only, do not type unit).

{"compound": "CC(=O)N(O)CCCCCNC(=O)CCC(=O)N(O)CCCCCNC(=O)CCC(=O)N(O)CCCCCN [Deferoxamine Mesylate]", "EGFP, 293-EGFP cells Drug alone": 194929488}
{"compound": "CC(C)C[C@H]1C(=O)N2CCC[C@H]2[C@]2(O)O[C@](NC(=O)[C@@H]3C=C4c5cccc6[nH]c(Br)c(c56)C[C@H]4N(C)C3)(C(C)C)C(=O)N12 [Bromocriptine Mesylate]", "EGFP, 293-EGFP cells Drug alone": 132392840}
{"compound": "Cc1cc(=O)c2c(O)c3c(cc2o1)OCC(C)CC3 (stereo not shown) [Dihydroptaeroxylin]", "EGFP, 293-EGFP cells Drug alone": 215783848}

// query # returns recorded EGFP, 293-EGFP cells Drug alone (system: EGFP, 293-EGFP cells) for "O=C(O)CCC(=O)c1ccc(-c2ccccc2)cc1"
// result 204633204
